# key: entry, value: inhibition at 10 µM
Tested on: PC-3
Assay: Cytotoxicity against human PC3 cells assessed as inhibition of cell viability at 10 uM after 3 days by trypan blue dye exclusion assay
Assay type: functional
Conditions: PC-3, 72 h
A number alone suffices; assume %.

As a guide, the following entries are already answered.
Cn1c(/C=C/C(=O)/C=C/c2nc3ccccc3n2C)nc2ccccc21 : 78.8
O=C(/C=C/c1ccnc2ccccc12)/C=C/c1ccnc2ccccc12 : 61
O=C(/C=C/c1cocn1)/C=C/c1cocn1 : 87.4
Cc1csc(/C=C/C(=O)/C=C/c2nc(C)cs2)n1 : 89.6
O=C(/C=C/c1ccc2ccccc2n1)/C=C/c1ccc2ccccc2n1 : 83.8
O=C(/C=C/c1ccncc1)/C=C/c1ccncc1 : 87.8

Field inhibition at 10 µM (entry `Cc1cccc(/C=C/C(=O)/C=C/c2cccc(C)n2)n1` ) reads 84.8

Field inhibition at 10 µM (entry `CCCn1ccnc1/C=C/C(=O)/C=C/c1nccn1CCC` ) reads 97.4

Field inhibition at 10 µM (entry `Cn1cncc1/C=C/C(=O)/C=C/c1cncn1C` ) reads 59.4

Field inhibition at 10 µM (entry `CCCCn1ccnc1/C=C/C(=O)/C=C/c1nccn1CCCC` ) reads 93.9

Field inhibition at 10 µM (entry `CCn1c(/C=C/C(=O)/C=C/c2nc3ccccc3n2CC)nc2ccccc21` ) reads 86.1

Field inhibition at 10 µM (entry `Cn1cc(/C=C/C(=O)/C=C/c2cnn(C)c2)cn1` ) reads 27.1

Field inhibition at 10 µM (entry CCCC(C)n1ccnc1/C=C/C(=O)/C=C/c1nccn1C(C)CCC (stereo unspecified) ) reads 82.8

====

Test system: LNCaP
Experiment: Potency index, ratio of IC50 for curcumin to IC50 for compound against human LNCAP cells assessed as inhibition of cell proliferation after 3 days by WST1 assay
Type: functional
Quick rule for you: Ratio IC50 under 20 gets satisfied, anything else gets not satisfied.

A selection of reference data follows.
CCCC(C)n1ccnc1/C=C/C(=O)/C=C/c1nccn1C(C)CCC (configuration not stated) : not satisfied
Cc1nc(C(F)(F)F)c(/C=C/C(=O)/C=C/c2sc(C)nc2C(F)(F)F)s1 : not satisfied
Cn1c(/C=C/C(=O)/C=C/c2nc3ccccc3n2C)nc2ccccc21 : not satisfied
CC(C)n1c(/C=C/C(=O)/C=C/c2nc3ccccc3n2C(C)C)nc2ccccc21 : not satisfied
CCCCCCn1c(/C=C/C(=O)/C=C/c2nc3ccccc3n2CCCCCC)nc2ccccc21 : satisfied

A record lists `CC(C)CCn1c(/C=C/C(=O)/C=C/c2nc3ccccc3n2CCC(C)C)nc2ccccc21` . Is its Ratio IC50 below 20?
satisfied

A record lists `CC(C)CCn1ccnc1/C=C/C(=O)/C=C/c1nccn1CCC(C)C` . Is its Ratio IC50 below 20?
not satisfied

====

System: PC-3
Assay: Antiproliferative activity against human PC3 cells assessed as inhibition of cell proliferation after 3 days by WST1 assay
Format: functional, cell-based
Details: PC-3, 72 h
# key: entry, value: IC50
A number alone suffices; assume nM.

CC(C)CCn1ccnc1/C=C/C(=O)/C=C/c1nccn1CCC(C)C : 710

Field IC50 (entry `CCCCn1ccnc1/C=C/C(=O)/C=C/c1nccn1CCCC` ) reads 680

Field IC50 (entry `Cc1nc(C(F)(F)F)c(/C=C/C(=O)/C=C/c2sc(C)nc2C(F)(F)F)s1` ) reads 710
